We begin with a simple list: items and their reported isobaric coefficient of expansion.
- assayProtocol: isobaric coefficient of expansion
- measurementConditions: 328.15 K; 55000 kPa; Liquid; DSC with Pressure Shift
valueKind: isobaric coefficient of expansion

>  <compound>
CCCO [propan-1-ol]

>  <valueKind>
isobaric coefficient of expansion

>  <result>
0.000821 1/K

$$$$
>  <compound>
CCCCCCCCCO [nonan-1-ol]

>  <valueKind>
isobaric coefficient of expansion

>  <result>
0.000687 1/K

$$$$
>  <compound>
CCCCCCCCO [octan-1-ol]

>  <valueKind>
isobaric coefficient of expansion

>  <result>
0.000692 1/K

$$$$
>  <compound>
CCCCCN [1-pentanamine]

>  <valueKind>
isobaric coefficient of expansion

>  <result>
0.000898 1/K

$$$$
>  <compound>
CCCCCCO [hexan-1-ol]

>  <valueKind>
isobaric coefficient of expansion

>  <result>
0.000731 1/K

$$$$
>  <compound>
CCCCCCCCCCO [decan-1-ol]

>  <valueKind>
isobaric coefficient of expansion

>  <result>
0.000679 1/K

$$$$
>  <compound>
CCC(O)CC [3-pentanol]

>  <valueKind>
isobaric coefficient of expansion

>  <result>
0.000887 1/K

$$$$
>  <compound>
CCCCCCCO [heptan-1-ol]

>  <valueKind>
isobaric coefficient of expansion

>  <result>
0.000715 1/K

$$$$
>  <compound>
CCO [ethanol]

>  <valueKind>
isobaric coefficient of expansion

>  <result>
0.000877 1/K

$$$$
>  <compound>
CCCC(C)O (stereo unspecified) [pentan-2-ol]

>  <valueKind>
isobaric coefficient of expansion

>  <result>
0.000844 1/K

$$$$
>  <compound>
CCCCCO [pentan-1-ol]

>  <valueKind>
isobaric coefficient of expansion

>  <result>
0.00074 1/K

$$$$

---

- assayProtocol: isobaric coefficient of expansion
- measurementConditions: 348.15 K; 35000 kPa; Liquid; DSC with Pressure Shift
We begin with a simple list: items and their reported isobaric coefficient of expansion.
valueKind: isobaric coefficient of expansion

>  <compound>
CCCCCCCO

>  <result>
0.000806 1/K

$$$$
>  <compound>
CCO

>  <result>
0.00102 1/K

$$$$
>  <compound>
CCCCCN

>  <result>
0.000999 1/K

$$$$
>  <compound>
CCCCCO

>  <result>
0.000849 1/K

$$$$
>  <compound>
CCCCCCCCCO

>  <result>
0.000768 1/K

$$$$
>  <compound>
CCCCCCO

>  <result>
0.000831 1/K

$$$$
>  <compound>
CCCCCCCCCCO

>  <result>
0.000755 1/K

$$$$
>  <compound>
CCCC(C)O (stereo unspecified)

>  <result>
0.000995 1/K

$$$$
>  <compound>
CCCO

>  <result>
0.000958 1/K

$$$$
>  <compound>
CCC(O)CC

>  <result>
0.00103 1/K

$$$$
>  <compound>
CCCCCCCCO

>  <result>
0.00078 1/K

$$$$

---

- assayProtocol: isobaric coefficient of expansion
- measurementConditions: 318.15 K; 10000 kPa; Liquid; DSC with Pressure Shift

>  <compound>
CCCCCCCCCO

>  <isobaric coefficient of expansion>
0.000826 1/K

$$$$
>  <compound>
CCCCCCCO

>  <isobaric coefficient of expansion>
0.000854 1/K

$$$$
>  <compound>
CCCCCO

>  <isobaric coefficient of expansion>
0.000904 1/K

$$$$
>  <compound>
CCO

>  <isobaric coefficient of expansion>
0.00109 1/K

$$$$
>  <compound>
CCCO

>  <isobaric coefficient of expansion>
0.001 1/K

$$$$
>  <compound>
CCCCCN

>  <isobaric coefficient of expansion>
0.00112 1/K

$$$$
>  <compound>
CCCCCCCCCCO

>  <isobaric coefficient of expansion>
0.000814 1/K

$$$$
>  <compound>
CCCCCCO

>  <isobaric coefficient of expansion>
0.000877 1/K

$$$$
>  <compound>
CCCC(C)O (stereo unspecified)

>  <isobaric coefficient of expansion>
0.00103 1/K

$$$$
>  <compound>
CCCCCCCCO

>  <isobaric coefficient of expansion>
0.000837 1/K

$$$$
>  <compound>
CCC(O)CC

>  <isobaric coefficient of expansion>
0.00103 1/K

$$$$

---

- assayProtocol: isobaric coefficient of expansion
- measurementConditions: 338.15 K; 25000 kPa; Liquid; DSC with Pressure Shift

>  <compound>
CCCCCCO [hexan-1-ol]

>  <isobaric coefficient of expansion>
0.000854 1/K

$$$$
>  <compound>
CCCCCO [pentan-1-ol]

>  <isobaric coefficient of expansion>
0.000874 1/K

$$$$
>  <compound>
CCCCCCCO [heptan-1-ol]

>  <isobaric coefficient of expansion>
0.00083 1/K

$$$$
>  <compound>
CCCCCN [1-pentanamine]

>  <isobaric coefficient of expansion>
0.00105 1/K

$$$$
>  <compound>
CCCCCCCCCCO [decan-1-ol]

>  <isobaric coefficient of expansion>
0.000779 1/K

$$$$
>  <compound>
CCCCCCCCO [octan-1-ol]

>  <isobaric coefficient of expansion>
0.000801 1/K

$$$$
>  <compound>
CCC(O)CC [3-pentanol]

>  <isobaric coefficient of expansion>
0.00105 1/K

$$$$
>  <compound>
CCCC(C)O (stereo unspecified) [pentan-2-ol]

>  <isobaric coefficient of expansion>
0.00102 1/K

$$$$
>  <compound>
CCCCCCCCCO [nonan-1-ol]

>  <isobaric coefficient of expansion>
0.000789 1/K

$$$$
>  <compound>
CCCO [propan-1-ol]

>  <isobaric coefficient of expansion>
0.000977 1/K

$$$$
>  <compound>
CCO [ethanol]

>  <isobaric coefficient of expansion>
0.00105 1/K

$$$$

---

- assayProtocol: isobaric coefficient of expansion
- measurementConditions: 328.15 K; 35000 kPa; Liquid; DSC with Pressure Shift
We begin with a simple list: items and their reported isobaric coefficient of expansion.

>  <molecule>
CCCCCO

>  <isobaric coefficient of expansion>
0.000809 1/K

$$$$
>  <molecule>
CCO

>  <isobaric coefficient of expansion>
0.000962 1/K

$$$$
>  <molecule>
CCCC(C)O (stereo unspecified)

>  <isobaric coefficient of expansion>
0.000933 1/K

$$$$
>  <molecule>
CCCCCN

>  <isobaric coefficient of expansion>
0.000989 1/K

$$$$
>  <molecule>
CCCCCCCO

>  <isobaric coefficient of expansion>
0.000775 1/K

$$$$
>  <molecule>
CCCCCCO

>  <isobaric coefficient of expansion>
0.000794 1/K

$$$$
>  <molecule>
CCCCCCCCCCO

>  <isobaric coefficient of expansion>
0.000732 1/K

$$$$
>  <molecule>
CCCCCCCCCO

>  <isobaric coefficient of expansion>
0.000743 1/K

$$$$
>  <molecule>
CCCCCCCCO

>  <isobaric coefficient of expansion>
0.000751 1/K

$$$$
>  <molecule>
CCCO

>  <isobaric coefficient of expansion>
0.000901 1/K

$$$$
>  <molecule>
CCC(O)CC

>  <isobaric coefficient of expansion>
0.000965 1/K

$$$$

---

- assayProtocol: isobaric coefficient of expansion
- measurementConditions: 308.15 K; 45000 kPa; Liquid; DSC with Pressure Shift
valueKind: isobaric coefficient of expansion

>  <molecule>
CCCCCO

>  <result>
0.000748 1/K

$$$$
>  <molecule>
CCCC(C)O (stereo unspecified)

>  <result>
0.00083 1/K

$$$$
>  <molecule>
CCCCCCCO

>  <result>
0.000717 1/K

$$$$
>  <molecule>
CCC(O)CC

>  <result>
0.000869 1/K

$$$$
>  <molecule>
CCCCCCO

>  <result>
0.000733 1/K

$$$$
>  <molecule>
CCCCCCCCCO

>  <result>
0.000695 1/K

$$$$
>  <molecule>
CCCCCN

>  <result>
0.000949 1/K

$$$$
>  <molecule>
CCCCCCCCCCO

>  <result>
0.00069 1/K

$$$$
>  <molecule>
CCO

>  <result>
0.000883 1/K

$$$$
>  <molecule>
CCCO

>  <result>
0.000824 1/K

$$$$
>  <molecule>
CCCCCCCCO

>  <result>
0.000702 1/K

$$$$

---

- assayProtocol: isobaric coefficient of expansion
- measurementConditions: 338.15 K; 15000 kPa; Liquid; DSC with Pressure Shift
valueKind: isobaric coefficient of expansion

>  <compound>
CCO

>  <result>
0.00112 1/K

$$$$
>  <compound>
CCCCCCCCO

>  <result>
0.000845 1/K

$$$$
>  <compound>
CCCCCCCO

>  <result>
0.000875 1/K

$$$$
